Data provenance: patent US12497460B2

Please go through the items and note down their Anti-MSR1 antibody (100 nM) blocking of Ac-LDL binding to His9-hMSR1 % Blocking.
target: T1, Ac-LDL binding to His9-hMSR1 (Homo sapiens, UniProt P21757)
T1 construct: human MSR1 extracellular domain expressed with a N-terminal nonahistidine tag; His9 (nonahistidine) (N); purchased R&D Systems 2708-MS
T1 sequence (P21757 77-451 limits assumed): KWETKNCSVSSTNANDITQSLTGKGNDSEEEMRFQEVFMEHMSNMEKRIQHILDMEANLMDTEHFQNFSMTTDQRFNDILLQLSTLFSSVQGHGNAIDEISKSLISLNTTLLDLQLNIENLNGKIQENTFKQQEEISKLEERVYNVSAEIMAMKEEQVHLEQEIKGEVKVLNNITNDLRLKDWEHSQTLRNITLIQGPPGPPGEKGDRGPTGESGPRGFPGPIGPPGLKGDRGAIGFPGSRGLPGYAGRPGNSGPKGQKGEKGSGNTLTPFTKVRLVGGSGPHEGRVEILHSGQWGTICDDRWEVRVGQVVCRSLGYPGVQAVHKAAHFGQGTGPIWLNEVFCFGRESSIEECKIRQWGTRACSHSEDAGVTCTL
test_method_notes: Competition sandwich ELISA, blocking of Ac-LDL binding
measurement_parameters: 50 pM Ac-LDL
One number for each entry, in %.

Some solved entries appear below for comparison.
| molecule | value |
| --- | --- |
| H1H21227N-N297Q: "modified versions of 21227N (H1H21227N-N297Q and H1H21227N-N297D)"; anti-MSR1 antibody "with a N297Q single point mutation" (antibody, V domains shown) VH: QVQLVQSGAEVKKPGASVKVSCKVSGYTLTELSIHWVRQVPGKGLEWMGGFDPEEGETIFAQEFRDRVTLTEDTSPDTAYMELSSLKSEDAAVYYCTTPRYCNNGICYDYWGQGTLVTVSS VL: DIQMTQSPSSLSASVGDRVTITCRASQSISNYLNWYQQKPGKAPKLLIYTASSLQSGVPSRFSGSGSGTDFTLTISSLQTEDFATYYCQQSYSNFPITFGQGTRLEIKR | 105 |
| H1H21227N: "anti-MSR1 antibodies ... (21227N, 21231N, 21234N) were produced with the original human Fcγ portion"; "H1H" = human IgG1 Fc (antibody, V domains shown, human IgG1 Fc, "anti-MSR1 antibodies ; (21227N, 21231N, 21234N) were produced with the original human Fcγ portion"; "H1H" = human IgG1 Fc) VH: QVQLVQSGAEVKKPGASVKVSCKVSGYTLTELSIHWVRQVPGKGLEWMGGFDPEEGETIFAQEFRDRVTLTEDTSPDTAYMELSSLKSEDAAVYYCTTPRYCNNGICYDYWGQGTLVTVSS VL: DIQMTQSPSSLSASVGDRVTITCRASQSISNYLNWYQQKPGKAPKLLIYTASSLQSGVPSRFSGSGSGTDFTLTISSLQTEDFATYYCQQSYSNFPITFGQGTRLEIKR | 105 |
| H1H21231N: "anti-MSR1 antibodies ... (21227N, 21231N, 21234N) were produced with the original human Fcγ portion"; "H1H" = human IgG1 Fc (antibody, V domains shown, human IgG1 Fc, "anti-MSR1 antibodies ; (21227N, 21231N, 21234N) were produced with the original human Fcγ portion"; "H1H" = human IgG1 Fc) VH: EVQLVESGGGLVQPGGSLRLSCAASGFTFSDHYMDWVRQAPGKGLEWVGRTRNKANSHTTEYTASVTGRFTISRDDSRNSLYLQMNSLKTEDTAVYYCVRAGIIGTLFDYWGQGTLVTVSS VL: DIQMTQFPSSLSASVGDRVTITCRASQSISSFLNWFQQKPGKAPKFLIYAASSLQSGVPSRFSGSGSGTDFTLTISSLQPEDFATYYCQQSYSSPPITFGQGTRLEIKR | −62 |
| H1H21227N-N297D: "The 21227N antibody was also produced as a third version with a N297D mutation" (antibody, V domains shown) VH: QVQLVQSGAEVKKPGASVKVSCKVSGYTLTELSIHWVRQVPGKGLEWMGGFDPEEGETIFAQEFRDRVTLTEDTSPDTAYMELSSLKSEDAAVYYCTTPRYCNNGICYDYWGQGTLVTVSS VL: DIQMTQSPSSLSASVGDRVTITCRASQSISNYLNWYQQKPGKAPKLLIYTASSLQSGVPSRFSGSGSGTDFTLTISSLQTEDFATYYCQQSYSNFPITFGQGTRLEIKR | 101 |

Next molecule, please.
query: Which Anti-MSR1 antibody (100 nM) blocking of Ac-LDL binding to His9-hMSR1 % Blocking value is on record for H1H21231N-N297Q: modified version of "21231N (H1H21231N-N297Q) anti-MSR1 antibodies" with "a N297Q single point mutation" (antibody, V domains shown) VH: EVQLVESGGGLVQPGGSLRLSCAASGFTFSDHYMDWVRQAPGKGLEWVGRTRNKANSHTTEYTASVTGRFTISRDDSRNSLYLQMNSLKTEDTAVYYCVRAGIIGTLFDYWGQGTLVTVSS VL: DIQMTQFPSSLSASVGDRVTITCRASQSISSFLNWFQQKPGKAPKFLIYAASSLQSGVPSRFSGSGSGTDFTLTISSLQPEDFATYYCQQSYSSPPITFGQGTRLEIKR ?
result: −60
